targetUnderTest: UniProt:O43570
Sequence (O43570 whole entry): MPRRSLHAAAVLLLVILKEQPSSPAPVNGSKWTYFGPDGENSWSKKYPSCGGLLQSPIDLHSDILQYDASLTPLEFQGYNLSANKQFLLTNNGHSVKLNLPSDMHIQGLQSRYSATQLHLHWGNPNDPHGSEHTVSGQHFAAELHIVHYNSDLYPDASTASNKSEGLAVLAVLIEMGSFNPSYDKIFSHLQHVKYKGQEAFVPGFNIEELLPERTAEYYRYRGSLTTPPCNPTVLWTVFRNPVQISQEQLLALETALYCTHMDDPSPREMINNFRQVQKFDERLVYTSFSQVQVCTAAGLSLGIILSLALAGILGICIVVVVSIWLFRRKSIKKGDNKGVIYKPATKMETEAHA
experimentalDetails: Inhibition of recombinant human CA12 pre-incubated for 15 mins by phenol red dye based stopped flow CO2 hydration assay
hey, just use fulfilled if measured Ki is less than 10 nM, otherwise not fulfilled

smilesStr	assignedClass
NS(=O)(=O)c1ccc(CCN(Cc2ccc(F)cc2)C(=O)c2ccc(-c3cssc3=S)cc2)cc1	not fulfilled
CSc1ccc(CN(CCc2ccc(S(N)(=O)=O)cc2)C(=O)c2ccc(-c3cssc3=S)cc2)cc1	fulfilled
NS(=O)(=O)c1ccc(CCN(Cc2ccc([N+](=O)[O-])cc2)C(=O)c2ccc(-c3cssc3=S)cc2)cc1	not fulfilled
N#CCCN(CCc1ccc(S(N)(=O)=O)cc1)C(=O)c1ccc(-c2cssc2=S)cc1	fulfilled
NS(=O)(=O)c1ccc(CCN(Cc2cccc3ccccc23)C(=O)c2ccc(-c3cssc3=S)cc2)cc1	fulfilled
CN(C)c1ccc(CN(CCc2ccc(S(N)(=O)=O)cc2)C(=O)c2ccc(-c3cssc3=S)cc2)cc1	fulfilled
COc1cc([N+](=O)[O-])ccc1CN(CCc1ccc(S(N)(=O)=O)cc1)C(=O)c1ccc(-c2cssc2=S)cc1	fulfilled
NS(=O)(=O)c1ccc(CCN(Cc2ccccc2)C(=O)c2ccc(-c3cssc3=S)cc2)cc1	fulfilled
COc1ccc(CN(CCc2ccc(S(N)(=O)=O)cc2)C(=O)c2ccc(-c3cssc3=S)cc2)cc1OC	fulfilled
NS(=O)(=O)c1ccc(CCN(Cc2ccc(Br)cc2)C(=O)c2ccc(-c3cssc3=S)cc2)cc1	not fulfilled
